B1: TMEM106C (parent)
chain: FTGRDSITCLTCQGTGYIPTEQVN

- Variants of: B1
- method: protein stability index of a GFP-peptide fusion (GPS, HEK-293T) (PSI 1-6); higher = more stable;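 also: lentivirally expressed fusions sorted by FACS into six bins by GFP to DsRed ratio, PSI derived from sequencing read proportions per bin multiplied by bin number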
- condition.notes: c terminus: a fixed tail appended
Please respond with reported protein stability index for every item in the list.
Answer with a number only.

Read off the recorded protein stability index for FTGRDSITCLTCQGTGYIPTEVVN [Q22V]
2.16

Read off the recorded protein stability index for VTGRDSITCLTCQGTGYIPTEQVN [F1V]
4.43

Read off the recorded protein stability index for FTGRDSMTCLTCQGTGYIPTEQVN [I7M]
1.76

Read off the recorded protein stability index for FTGRDSPTCLTCQGTGYIPTEQVN [I7P]
2.23

Read off the recorded protein stability index for FTGRDSITCLTCQGTGYIPTEQVK [N24K]
2.33

Read off the recorded protein stability index for FTGRDSITCLTCQTTGYIPTEQVN [G14T]
2.33

Read off the recorded protein stability index for FTGRDSITCLVCQGTGYIPTEQVN [T11V]
2.66

Read off the recorded protein stability index for FTGRDSITCLTCQGWGYIPTEQVN [T15W]
2.34

Read off the recorded protein stability index for FTHRDSITCLTCQGTGYIPTEQVN [G3H]
1.7

Read off the recorded protein stability index for FTGRDSITCLTCQGTGYIPTEQRN [V23R]
2.13

Read off the recorded protein stability index for FTGRDSIRCLTCQGTGYIPTEQVN [T8R]
1.41

Read off the recorded protein stability index for FTGRDSIACLTCQGTGYIPTEQVN [T8A]
2.91

Read off the recorded protein stability index for FTGRDSITCETCQGTGYIPTEQVN [L10E]
3.8

Read off the recorded protein stability index for FTGRDSITCNTCQGTGYIPTEQVN [L10N]
2.77

Read off the recorded protein stability index for FTGRDSITCLTCQGTGYIPTEQQN [V23Q]
1.72

Read off the recorded protein stability index for FTGRDSITCLTCQGTGYIPTEYVN [Q22Y]
1.9

Read off the recorded protein stability index for FTGRDSITCLTKQGTGYIPTEQVN [C12K]
2

Read off the recorded protein stability index for FTGRDSITCLTCQHTGYIPTEQVN [G14H]
1.88

Read off the recorded protein stability index for FTGRDSITCLTCQGTGYIPTPQVN [E21P]
2.2

Read off the recorded protein stability index for FTGRDSITCLTCCGTGYIPTEQVN [Q13C]
1.53

Read off the recorded protein stability index for FTGRDSITCLTCQGTGYIPTEQCN [V23C]
2.25

Read off the recorded protein stability index for FTGRDSITCLTQQGTGYIPTEQVN [C12Q]
1.95
